Where these numbers come from: the supplement of paper PMC7877785

Catalogue of self-splicing fitness (ln) readings, one per entry.
Test: self-splicing fitness, log relative to wild type (ln ratio); higher = more splicing; Tetrahymena group I intron in knt gene, E. coli kanamycin selection, DiMSum; sequences stand for … in CUCUCU…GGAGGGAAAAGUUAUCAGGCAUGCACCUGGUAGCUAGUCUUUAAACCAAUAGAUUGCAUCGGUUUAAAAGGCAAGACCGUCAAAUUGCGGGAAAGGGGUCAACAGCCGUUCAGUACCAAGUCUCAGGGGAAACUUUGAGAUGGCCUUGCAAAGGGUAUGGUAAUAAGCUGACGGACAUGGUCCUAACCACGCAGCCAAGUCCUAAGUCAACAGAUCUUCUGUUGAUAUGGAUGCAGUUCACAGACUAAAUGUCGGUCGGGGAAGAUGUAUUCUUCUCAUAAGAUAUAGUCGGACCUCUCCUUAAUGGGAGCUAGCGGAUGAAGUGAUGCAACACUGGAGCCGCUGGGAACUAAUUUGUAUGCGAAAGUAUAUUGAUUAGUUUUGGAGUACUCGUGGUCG;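 further: selection with 25 µg/mL kanamycin versus none on LB agar overnight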
Settings: 30 °C
Could you respond with only the numeric value?

> print(dat)
   macromolecule.sequence  numeric.value
1    AACGAGCAAUAUUACGAGGG          -3.03
2    CGCUAGCAAUAUUACGCUUA          -3.03

Now for the sequence whose self-splicing fitness (ln) we want.
Exercise: Consider the sequence shown here: AUUGAGCAAUAUUACGCCCG What is its recorded self-splicing fitness (ln)?
Key: -3.02

====

Assay: self-splicing fitness, log relative to wild type (ln ratio); higher = more splicing; Tetrahymena group I intron in knt gene, E. coli kanamycin selection, DiMSum; sequences stand for … in CUCUCU…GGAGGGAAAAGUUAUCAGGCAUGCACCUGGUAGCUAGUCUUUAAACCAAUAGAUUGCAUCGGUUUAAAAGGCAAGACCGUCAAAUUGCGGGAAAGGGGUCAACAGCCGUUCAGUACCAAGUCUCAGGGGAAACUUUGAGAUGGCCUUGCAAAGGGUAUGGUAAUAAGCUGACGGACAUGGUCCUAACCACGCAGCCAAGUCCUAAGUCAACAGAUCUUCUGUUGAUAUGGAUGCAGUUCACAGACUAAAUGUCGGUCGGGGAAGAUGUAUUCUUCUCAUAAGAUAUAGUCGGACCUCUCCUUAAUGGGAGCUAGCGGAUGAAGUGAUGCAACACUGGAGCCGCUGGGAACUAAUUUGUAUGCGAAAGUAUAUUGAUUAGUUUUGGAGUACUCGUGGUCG
Settings: 37 °C
# label = bin(measured self-splicing fitness (ln)), where bins are LOW = under -2, MEDIUM = from -2 up to -0.9, HIGH = -0.9 and over

> print(dat)
   macromolecule.sequence   class
1    GUUGAGCAAUAUUACGAUGU  MEDIUM
2    ACACAGCAAUAUUACGCUGU     LOW
3    GGCAAGCAAUAUUACGAUAA    HIGH

Exercise: Hey, which category is AGUAAGCAAUAUUACGCAGA in, do you know?
Key: LOW

Exercise: Hey, which category is AUCCAGCAAUAUUACGUAGG in, do you know?
Key: MEDIUM

Exercise: Hey, which category is ACCGAGCAAUAUUACGGCGG in, do you know?
Key: LOW

====

Test: self-splicing fitness, log relative to wild type (ln ratio); higher = more splicing; Tetrahymena group I intron in knt gene, E. coli kanamycin selection, DiMSum; sequences stand for … in CUCUCU…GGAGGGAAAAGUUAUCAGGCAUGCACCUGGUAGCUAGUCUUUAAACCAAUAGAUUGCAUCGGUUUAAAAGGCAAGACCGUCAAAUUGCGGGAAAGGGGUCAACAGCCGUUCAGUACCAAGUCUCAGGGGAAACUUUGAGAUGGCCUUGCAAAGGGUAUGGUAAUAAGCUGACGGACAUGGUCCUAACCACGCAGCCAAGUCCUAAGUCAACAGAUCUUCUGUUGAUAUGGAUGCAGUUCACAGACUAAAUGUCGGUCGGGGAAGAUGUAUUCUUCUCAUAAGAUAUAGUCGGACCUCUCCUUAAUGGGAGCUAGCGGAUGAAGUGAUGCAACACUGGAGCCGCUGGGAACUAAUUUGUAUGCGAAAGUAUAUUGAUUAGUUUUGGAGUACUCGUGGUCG
Conditions: 30 °C
Mark Yes for reported self-splicing fitness (ln) of -3 or greater; mark No for anything smaller.

Sample answers from the record:
> print(dat)
   macromolecule.sequence  class
1    UAUUAGCAAUAUUACGAAGA    Yes
2    ACAUAGCAAUAUUACGGCGG    Yes
3    GUAAAGCAAUAUUACGGAUU    Yes

Exercise: Hi, just wondering whether AAGUAGCAAUAUUACGAGUC shows self-splicing fitness (ln) of -3 or higher.
Key: Yes

Exercise: Hi, just wondering whether CAGUAGCAAUAUUACGGAAU shows self-splicing fitness (ln) of -3 or higher.
Key: No

Exercise: Hi, just wondering whether UCACAGCAAUAUUACGUUGG shows self-splicing fitness (ln) of -3 or higher.
Key: Yes

Exercise: Hi, just wondering whether UACUAGCAAUAUUACGAAGU shows self-splicing fitness (ln) of -3 or higher.
Key: No

Exercise: Hi, just wondering whether GUCGAGCAAUAUUACGUGUA shows self-splicing fitness (ln) of -3 or higher.
Key: No

====

Assay: self-splicing fitness, log relative to wild type (ln ratio); higher = more splicing; Tetrahymena group I intron in knt gene, E. coli kanamycin selection, DiMSum; sequences stand for … in CUCUCU…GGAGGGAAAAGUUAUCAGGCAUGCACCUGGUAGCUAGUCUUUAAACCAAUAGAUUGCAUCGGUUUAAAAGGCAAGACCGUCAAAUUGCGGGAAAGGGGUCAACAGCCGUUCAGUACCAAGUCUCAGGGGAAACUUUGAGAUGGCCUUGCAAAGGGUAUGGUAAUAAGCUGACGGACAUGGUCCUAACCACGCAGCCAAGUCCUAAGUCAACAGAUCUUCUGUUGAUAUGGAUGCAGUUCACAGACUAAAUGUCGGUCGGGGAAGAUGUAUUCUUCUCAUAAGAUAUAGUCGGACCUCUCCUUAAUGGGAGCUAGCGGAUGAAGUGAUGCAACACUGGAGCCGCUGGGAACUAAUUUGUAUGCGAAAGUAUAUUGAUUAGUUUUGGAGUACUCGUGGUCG
Conditions: 37 °C
Mark TRUE for reported self-splicing fitness (ln) of -1 or greater; mark FALSE for anything smaller.

Sample answers from the record:
> print(dat)
   macromolecule.sequence  class
1    GUUUAGCAAUAUUACGCAGU  FALSE
2    ACCUAGCAAUAUUACGCGUA  FALSE
3    UUCCAGCAAUAUUACGAGGA   TRUE

Exercise: Hi, just wondering whether CCCAAGCAAUAUUACGAUCA shows self-splicing fitness (ln) of -1 or higher.
Key: FALSE

Exercise: Hi, just wondering whether ACUAAGCAAUAUUACGAAGA shows self-splicing fitness (ln) of -1 or higher.
Key: FALSE

====

Test: self-splicing fitness, log relative to wild type (ln ratio); higher = more splicing; Tetrahymena group I intron in knt gene, E. coli kanamycin selection, DiMSum; sequences stand for … in CUCUCU…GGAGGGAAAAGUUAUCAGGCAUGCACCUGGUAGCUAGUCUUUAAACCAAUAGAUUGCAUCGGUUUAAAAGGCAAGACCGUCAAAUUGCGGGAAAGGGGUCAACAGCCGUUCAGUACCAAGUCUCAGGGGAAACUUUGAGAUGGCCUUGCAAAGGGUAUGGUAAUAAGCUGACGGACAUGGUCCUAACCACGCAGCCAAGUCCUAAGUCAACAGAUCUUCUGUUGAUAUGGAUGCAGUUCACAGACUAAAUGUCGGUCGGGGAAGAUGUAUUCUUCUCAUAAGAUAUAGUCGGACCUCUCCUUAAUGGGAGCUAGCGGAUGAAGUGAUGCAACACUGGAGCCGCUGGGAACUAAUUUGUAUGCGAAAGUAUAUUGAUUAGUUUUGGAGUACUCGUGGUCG
Settings: 30 °C
Catalogue of self-splicing fitness (ln) readings, one per entry.
Could you respond with only the numeric value?

> print(dat)
   macromolecule.sequence             measured.metric  numeric.value
1    AUUGAGCAAUAUUACGUUGC  self-splicing fitness (ln)          -2.94
2    CGAGAGCAAUAUUACGUAGA  self-splicing fitness (ln)          -1.62

Exercise: Consider the sequence shown here: UAUGAGCAAUAUUACGCUAC What is its recorded self-splicing fitness (ln)?
Key: -2.79

Exercise: Consider the sequence shown here: AUAAAGCAAUAUUACGCGCC What is its recorded self-splicing fitness (ln)?
Key: -0.37

Exercise: Consider the sequence shown here: CGGUAGCAAUAUUACGGUUU What is its recorded self-splicing fitness (ln)?
Key: -3.36

Exercise: Consider the sequence shown here: UAGGAGCAAUAUUACGCGUU What is its recorded self-splicing fitness (ln)?
Key: -4.38

Exercise: Consider the sequence shown here: UCCGAGCAAUAUUACGUCUC What is its recorded self-splicing fitness (ln)?
Key: -2.26

Exercise: Consider the sequence shown here: CUACAGCAAUAUUACGCCCU What is its recorded self-splicing fitness (ln)?
Key: -3.11
